Reported enrichment ratio values for the following variants.
B1: PhoQ; a variant is named by its letters at X, in order, P23837 (parent)
chain: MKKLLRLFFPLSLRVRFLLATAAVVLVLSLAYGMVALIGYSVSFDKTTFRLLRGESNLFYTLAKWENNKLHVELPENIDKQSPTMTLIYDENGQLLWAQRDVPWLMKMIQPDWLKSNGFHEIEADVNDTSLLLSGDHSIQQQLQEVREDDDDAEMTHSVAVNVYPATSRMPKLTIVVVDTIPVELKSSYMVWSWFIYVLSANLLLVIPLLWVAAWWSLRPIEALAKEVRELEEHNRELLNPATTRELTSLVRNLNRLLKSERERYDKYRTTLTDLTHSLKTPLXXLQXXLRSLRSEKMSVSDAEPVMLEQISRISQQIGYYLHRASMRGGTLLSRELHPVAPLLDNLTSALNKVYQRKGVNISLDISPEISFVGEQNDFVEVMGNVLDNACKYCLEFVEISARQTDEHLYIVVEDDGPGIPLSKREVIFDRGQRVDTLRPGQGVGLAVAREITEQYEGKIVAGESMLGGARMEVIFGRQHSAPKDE

Variants of: B1
assay: enrichment ratio after two sorts for PhoP signalling (ratio (wild type AVST 3.29)); higher = more functional
conditions.used: with PhoP (E. coli)
Over roughly 140,000 sequences, “enrichment ratio after two sorts for PhoP signalling” has its median near 0; the highest 2% begin near 11. This excerpt belongs to a sample that is enriched for the highest values.

>  <variant.name>
KSNS

>  <result.operator>
≤

>  <enrichment ratio>
0.25

$$$$
>  <variant.name>
GSSI

>  <result.operator>
=

>  <enrichment ratio>
14.1

$$$$
>  <variant.name>
SANM

>  <result.operator>
=

>  <enrichment ratio>
9.22

$$$$
>  <variant.name>
TTYN

>  <result.operator>
=

>  <enrichment ratio>
12.5

$$$$
>  <variant.name>
RGSI

>  <result.operator>
≤

>  <enrichment ratio>
0.25

$$$$
>  <variant.name>
TSNY

>  <result.operator>
=

>  <enrichment ratio>
8.01

$$$$
>  <variant.name>
SDYI

>  <result.operator>
≤

>  <enrichment ratio>
0.25

$$$$
>  <variant.name>
GSSK

>  <result.operator>
≤

>  <enrichment ratio>
0.25

$$$$
>  <variant.name>
TTGL

>  <result.operator>
=

>  <enrichment ratio>
12.3

$$$$
>  <variant.name>
SLVC

>  <result.operator>
≤

>  <enrichment ratio>
0.25

$$$$
>  <variant.name>
SNMH

>  <result.operator>
=

>  <enrichment ratio>
11.9

$$$$
>  <variant.name>
HEMV

>  <result.operator>
≤

>  <enrichment ratio>
0.25

$$$$
>  <variant.name>
TSNT

>  <result.operator>
=

>  <enrichment ratio>
11.9

$$$$
>  <variant.name>
GGSI

>  <result.operator>
=

>  <enrichment ratio>
12.3

$$$$
>  <variant.name>
YTSA

>  <result.operator>
≤

>  <enrichment ratio>
0.25

$$$$
>  <variant.name>
YTGL

>  <result.operator>
≤

>  <enrichment ratio>
0.25

$$$$
>  <variant.name>
TGSI

>  <result.operator>
=

>  <enrichment ratio>
19.6

$$$$
>  <variant.name>
SNWR

>  <result.operator>
≤

>  <enrichment ratio>
0.25

$$$$
>  <variant.name>
REAM

>  <result.operator>
≤

>  <enrichment ratio>
0.25

$$$$
>  <variant.name>
GGVC

>  <result.operator>
≤

>  <enrichment ratio>
0.25

$$$$
>  <variant.name>
TSAT

>  <result.operator>
=

>  <enrichment ratio>
11.6

$$$$
>  <variant.name>
NGSI

>  <result.operator>
≤

>  <enrichment ratio>
0.25

$$$$
